test system: Rattus norvegicus; experiment: Antagonism of the bradycardia induced by iv injection of 5-HT(10-30 ug/kg) was evaluated by the compound administration in rat; type: functional; conditions: read-out: ID50 (the source's name)
VALUE_TYPE: ED50 (mg/kg)
A number alone suffices; assume mg/kg.

q: Check the records and state ED50 for `CN1CCC(N2C(=O)c3cccc4cccc(c34)C2=O)CC1`
a: 0.5

q: Let me know recorded ED50 for O=c1[nH]c2ccc(Cl)cc2c(=O)n1C1CN2CCC1CC2 (centres undefined) , thanks.
a: 0.08

----------
target: Serotonin 3 (5-HT3) receptor (Rattus norvegicus, UniProt P35563+Q9JJ16); test: Binding affinity at 5-hydroxytryptamine 3 receptor in rat posterior cortex by [3H]-BRL 43694 displacement.
Sequence (P35563 whole entry): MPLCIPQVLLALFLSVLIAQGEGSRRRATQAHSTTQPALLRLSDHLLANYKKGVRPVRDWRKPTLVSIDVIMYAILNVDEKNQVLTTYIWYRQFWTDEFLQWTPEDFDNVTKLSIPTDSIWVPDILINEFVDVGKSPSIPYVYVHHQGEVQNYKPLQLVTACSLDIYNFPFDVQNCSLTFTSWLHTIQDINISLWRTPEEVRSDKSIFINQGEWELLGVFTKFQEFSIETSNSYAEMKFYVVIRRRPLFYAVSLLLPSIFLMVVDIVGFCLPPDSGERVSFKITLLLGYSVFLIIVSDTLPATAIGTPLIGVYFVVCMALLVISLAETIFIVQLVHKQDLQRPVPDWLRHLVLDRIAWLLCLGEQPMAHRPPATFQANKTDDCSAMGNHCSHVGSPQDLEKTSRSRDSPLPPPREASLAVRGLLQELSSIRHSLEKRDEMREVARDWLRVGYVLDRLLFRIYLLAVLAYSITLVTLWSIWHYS
Sequence (Q9JJ16 whole entry): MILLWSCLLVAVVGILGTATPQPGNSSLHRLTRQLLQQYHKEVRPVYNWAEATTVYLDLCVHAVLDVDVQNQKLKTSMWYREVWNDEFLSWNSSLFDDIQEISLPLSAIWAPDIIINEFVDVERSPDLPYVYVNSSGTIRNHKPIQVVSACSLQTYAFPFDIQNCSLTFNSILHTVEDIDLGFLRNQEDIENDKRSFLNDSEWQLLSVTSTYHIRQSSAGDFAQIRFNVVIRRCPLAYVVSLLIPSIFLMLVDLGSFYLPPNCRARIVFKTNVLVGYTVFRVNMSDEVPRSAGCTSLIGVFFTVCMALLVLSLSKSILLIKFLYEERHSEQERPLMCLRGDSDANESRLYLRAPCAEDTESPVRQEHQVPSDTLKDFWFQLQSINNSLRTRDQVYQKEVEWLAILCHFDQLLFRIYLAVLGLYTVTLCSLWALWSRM
Field: Ki. Provide a value for each of the compounds that follow.
// note: answer is a bare numeric in nM

q: In one line, give reported Ki of the entry `Nc1ccc2c3c(cccc13)C(=O)N([C@@H]1CN3CCC1CC3)C2=O` .
a: 23.5

q: Dear colleague, please send me the reported Ki for O=C1c2cccc3c(Br)ccc(c23)C(=O)N1C1CN2CCC1CC2 (stereo not drawn) when you can.
a: 41

q: Please look at this compound and report its Ki: COc1cc(N)c(Cl)cc1C(=O)N[C@H]1CN2CCC1CC2 [(R)ZACOPRIDE]
a: 2.6

q: For the compound Nc1ccc2c3c(cccc13)C(=O)N(C1CN3CCC1CC3)C2=O (stereo not drawn) , give its measured Ki value.
a: 0.5

q: Entry `CN1CCC(N2C(=O)c3cccc4cccc(c34)C2=O)CC1` needs its Ki filled in; supply it.
a: 15

q: Specify measured Ki for O=C1c2cccc3c(Cl)ccc(c23)C(=O)N1C1CN2CCC1CC2 (stereo not drawn) .
a: 14

q: Look up and report measured Ki for this entry: `O=C1c2cccc3cccc(c23)CN1[C@@H]1CN2CCC1CC2`
a: 2.2

q: Please list Ki recorded for the compound COc1ccccc1C(=O)NC1CN2CCC1CC2 (stereo not drawn)
a: 22

q: Name the recorded Ki of the compound listed here: `Nc1ccc2c3c(cccc13)C(=O)N([C@H]1CN3CCC1CC3)C2=O`
a: 0.15

q: Respond only with Ki recorded for O=C1c2cccc3c([N+](=O)[O-])ccc(c23)C(=O)N1C1CN2CCC1CC2 (stereo not drawn)
a: 31

q: Determine from records and report Ki for O=c1[nH]c2ccccc2c(=O)n1C1CN2CCC1CC2 (stereo not drawn)
a: 80

q: State its Ki: O=c1[nH]c2ccc(Cl)cc2c(=O)n1C1CN2CCC1CC2 (stereo not drawn)
a: 30

q: Note down Ki recorded for `O=C1c2cccc3cccc(c23)C(=O)N1[C@@H]1CN2CCC1CC2`
a: 61

q: Report Ki for O=C1c2cccc3cccc(c23)C(=O)N1C1CN2CCC1CC2 (stereo not drawn)
a: 2.7

q: Item CN1C2CCC1CC(N1C(=O)c3cccc4cccc(c34)C1=O)C2 (stereo not drawn) : provide Ki
a: 374

q: Specify reported Ki for the compound shown: `O=C1c2cccc3cccc(c23)C(=O)N1[C@H]1CN2CCC1CC2`
a: 0.9

q: Using the record for `COc1cc(N)c(Cl)cc1C(=O)N[C@@H]1CN2CCC1CC2` , state its measured Ki.
a: 0.2

q: Entry `O=C1c2cccc3cccc(c23)CN1[C@H]1CN2CCC1CC2` needs its Ki filled in; supply it.
a: 2.3

Ref: ChEMBL document CHEMBL1126233
